- TARGET_OR_TEST_SYSTEM: T1, BCMA (Homo sapiens (Human), UniProt Q02223 1-54, limits assumed)
- T1 sequence: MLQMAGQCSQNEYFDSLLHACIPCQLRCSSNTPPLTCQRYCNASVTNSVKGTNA
- ASSAY_COMMENT: ELISA, format not described
- Set-up: unit not given here
If the reported ELISA_avg equals or exceeds 8, assign Fulfilled. If not, assign Not fulfilled.

Answered examples (3):
[Q] In plain terms: is recorded ELISA_avg at least 8 for D-domain SEQ ID NO: 285 (designed binder) MGSWSHFKYHLAIIKFYLEALGGSEAELAGFEIWIAKFEDELQMYKGKGNPEVEALRKEAAAIRDELQAYRHN ?
[A] Fulfilled

[Q] In plain terms: is recorded ELISA_avg at least 8 for D-domain SEQ ID NO: 92 (designed binder) MGSWTEFANRLEAINARLHALGGSEAELAAFEKEIAAFESELQAYKGKGNPEVEELRFSAALIRVYLQAYRHN ?
[A] Not fulfilled

[Q] In plain terms: is recorded ELISA_avg at least 8 for D-domain SEQ ID NO: 123 (designed binder) MGSWQEFYNRLEAIHMRLFALGGSEAELAAFEKEIAAFESELQAYKGKGNPEVEGLRSDAAPIRDVLQAYRHN ?
[A] Not fulfilled

Further cases:
[Q] In plain terms: is recorded ELISA_avg at least 8 for D-domain SEQ ID NO: 116 (designed binder) MGSWVEFDERLVAIWFRLHALGGSEAELAAFEKEIAAFESELQAYKGKGNPEVEALRARAAYIRIWLQAYRHN ?
[A] Fulfilled

[Q] In plain terms: is recorded ELISA_avg at least 8 for D-domain SEQ ID NO: 203 (designed binder) MGSWTEFWTRLNAIYERLDALGGSEAELAAFEKEIAAFESELQAYKGKGNPEVEKLRFTAASIRMYLQAYRHN ?
[A] Fulfilled
